- target.or.system: Prostaglandin E2 receptor EP4 subtype (Homo sapiens, UniProt P35408)
- Sequence (P35408 whole entry): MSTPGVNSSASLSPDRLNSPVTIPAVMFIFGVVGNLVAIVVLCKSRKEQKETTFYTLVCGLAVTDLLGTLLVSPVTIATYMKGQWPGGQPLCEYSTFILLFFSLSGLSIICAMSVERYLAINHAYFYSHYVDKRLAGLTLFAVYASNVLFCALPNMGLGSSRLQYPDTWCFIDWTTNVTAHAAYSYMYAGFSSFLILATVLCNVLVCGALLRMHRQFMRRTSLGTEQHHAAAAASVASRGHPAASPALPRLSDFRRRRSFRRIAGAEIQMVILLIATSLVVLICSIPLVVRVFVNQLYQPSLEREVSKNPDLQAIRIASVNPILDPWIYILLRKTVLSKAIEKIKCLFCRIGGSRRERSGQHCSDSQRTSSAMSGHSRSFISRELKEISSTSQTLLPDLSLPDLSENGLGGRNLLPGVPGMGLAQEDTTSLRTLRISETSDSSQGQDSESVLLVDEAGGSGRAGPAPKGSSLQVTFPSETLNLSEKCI
- assay.comment: Antagonist activity at human EP4 receptor expressed in HEK293 cells assessed as inhibition of PGE2-induced cAMP accumulation by scintillation proximity assay
- Format: functional, cell-based
reported.metric: IC50 (nM)

Challenge: Given the molecule `Cc1sc(C)c(C(=O)N[C@@H](C)c2ccc(C(=O)O)cc2)c1Cc1ccc(Cl)cc1` , what is its reported IC50?
Response given: 5.4

I. C[C@H](NC(=O)c1c(Cl)sc(Cl)c1Cc1cccc(Cl)c1)c1ccc(C(=O)O)cc1
II. Cc1sc(C)c(C(=O)NC2(c3ccc(-c4nn[nH]n4)cc3)CC2)c1Cc1ccc(C(F)(F)F)cc1
Challenge: Dear colleague, could you let me know whether I or II has the lower recorded IC50? Thanks. Answer by stating the label of the chosen item.
Response given: II
(II: 2.3 nM, I: 3.6 nM)
